# reported Potency; entries follow
Assay: Cellular viability qHTS for adrenocortical cancer (ACC) cell line SW-13 (AID 1963989); note: potency is the fitted concentration of half-maximal effect; nearly all actives have a fitted effect of over 65% in size
Settings: SW-13 ACC cells viability, CellTiter-Glo, 48 h
Inconclusive results are not listed. Active and inactive are the calls of the source. Calls come from the whole dose curve; as a rule, active = well fitted cell-killing curve with a large enough effect; inconclusive = small, poorly fitted or top-dose-only effect; inactive = flat fitted curve, though single readings scatter.

Here are 5 compounds together with their reported answers.
compound	Potency
Oc1c(Cl)cc(Cl)cc1Sc1cc(Cl)cc(Cl)c1O	20.6 µM (active)
O=C(NO)C1(CS(=O)(=O)c2ccc(Oc3ccc(Cl)cc3)cc2)CCOCC1	25.1 µM (active)
COc1ccc(S(=O)(=O)N(CCO)c2ccccc2CN(C)C/C=C/c2ccc(Cl)cc2)cc1	10 µM (active)
CNCc1ccc(-c2cc(-c3nc(-c4ccc(S(=O)(=O)C(C)C)cc4)cnc3N)on2)cc1	3.98 µM (active)
C#CC[C@H](c1nc2cc(Cl)ccc2c(=O)n1Nc1ccccc1)N(CCCN)C(=O)c1cccc(Cl)c1F	0.251 µM (active)

Task item: Please give the measured Potency for this compound: `CC(C)Nc1cc(-c2c[nH]c(C(=O)N[C@H](CO)c3cccc(Cl)c3)c2)c(Cl)cn1`
Reply: 15.8 µM (active)

Task item: Please give the measured Potency for this compound: `C[C@@H]1CCNC(=O)c2cc3ccc(C(=O)Nc4nc5ccccc5n4CCCN(C)C)cc3n21`
Reply: 25.1 µM (active)

Task item: Please give the measured Potency for this compound: `Oc1cc(-c2nc(-c3ccccc3)[nH]c2-c2ccncc2)ccc1Cl`
Reply: 17.8 µM (active)

Task item: Please give the measured Potency for this compound: `O=C(c1ccc(F)c(F)c1Nc1ccc(I)cc1F)N1CC(O)([C@@H]2CCCCN2)C1`
Reply: 12.6 µM (active)

Task item: Please give the measured Potency for this compound: COc1cc2c(cc1OC(C)C)[C@H](c1ccc(Cl)cc1)N(c1ccc(N(C)CC3CCC(N4CCN(C)C(=O)C4)CC3)cc1)C(=O)C2 (stereo not given in full)
Reply: 25.1 µM (active)

Task item: Please give the measured Potency for this compound: `CCN1CCN(Cc2ccc(NC(=O)c3ccc(C)c(/C=C/c4cnc5[nH]ccc5c4OC)c3)cc2C(F)(F)F)CC1`
Reply: 3.16 µM (active)

Task item: Please give the measured Potency for this compound: `Cc1cc(C(=O)N2CCN(c3cccc(Cl)c3)CC2)n(-c2ccccc2)n1`
Reply: 0.355 µM (active)

Task item: Please give the measured Potency for this compound: `Cc1cc(-c2nc3cc(F)ccc3s2)ccc1NC(=O)[C@@H](N)CCCCN`
Reply: 25.1 µM (active)

* * *

Test: Quantitative highthroughput screen to assess conditional lethalithy of NOMO1 cells grown in RPMI1640 with untreated serum (RPMI+s) (AID 1963876); note: nearly all actives have a fitted effect of over 35% in size; note: potency is the fitted concentration of half-maximal effect
Details: NOMO1 AML cells in RPMI+serum, CellTiter-Glo viability, 48 h; series mostly up to 45.8 µM
Results filed as inconclusive are left out. Calls of active or inactive are those of the source. The call rests on the fitted dose curve; in most records, active means well fitted cell-killing curve with a large enough effect; inconclusive means small, poorly fitted or top-dose-only effect; inactive means flat fitted curve, though single readings scatter.
measurement.name: Potency

Here are 5 compounds together with their reported answers.
compound	Potency
O=C1C[C@@H](c2ccc(O)cc2)Oc2cc(O)cc(O)c21	inactive
COc1ccc(-c2coc3cc(O)cc(O)c3c2=O)cc1	inactive
O=c1c(O)c(-c2cc(O)c(O)c(O)c2)oc2cc(O)cc(O)c12	inactive
O=C(NNC(=O)c1ccc(CNS(=O)(=O)c2ccc(F)c(Cl)c2)cc1)c1ccccc1	inactive
CCOc1cc2ncc(C#N)c(Nc3ccc(F)c(Cl)c3)c2cc1NC(=O)C=CCN(C)C	16.6 µM (active)

Task item: Please give the measured Potency for this compound: `COc1cc(C(C)C)c2c(c1)S(=O)(=O)N(COc1cc(=O)n3cccc(OCCN4CCCCC4)c3n1)C2=O`
Reply: inactive

Task item: Please give the measured Potency for this compound: `N[C@@H](CC(=O)N1CCn2c(nnc2C(F)(F)F)C1)Cc1cc(F)c(F)cc1F`
Reply: inactive

* * *

Assay: Quantitative highthroughput screen to assess conditional lethalithy of SEM cells grown in RPMI1640 with unreated serum (RPMI+s) (AID 1963883); note: nearly all actives have a fitted effect of over 35% in size
Details: SEM B-ALL cells, CellTiter-Glo viability, 48 h; series mostly up to 45.8 µM
Results filed as inconclusive are left out. Activity calls are given as the source filed them. Calls follow the shape of the dose curve; as a rule, active = well fitted cell-killing curve with a large enough effect; inconclusive = small, poorly fitted or top-dose-only effect, or effect the other way; inactive = no such curve, though single readings can be large or run the other way.
Use one of these outcomes when replying: y = active, n = inactive

Known results for molecules:
molecule	answer.label
CC[C@@]1(O)C(=O)OCc2c1cc1n(c2=O)Cc2cc3cc(O)ccc3nc2-1	y
O=C(O)C1=CC(O)C(O)[C@H](O)C1 (stereo partly specified)	n
CC1=C(C(=O)O)N2C(=O)[C@@H](NC(=O)[C@H](N)C3=CCC=CC3)[C@H]2SC1	n
CN1CCN2c3ncccc3Cc3ccccc3C2C1 (stereo unspecified)	n

Task item: Kindly provide the recorded test outcome for the following molecule: `CCCOc1ccc(C(=O)OCCN(CC)CC)cc1N`
Reply: n

Task item: Kindly provide the recorded test outcome for the following molecule: CC(N[C@H]1CCCC[C@H]1NC(=O)c1ccc(Cl)cc1)c1cccc2ccccc12 (stereo partly specified)
Reply: n

* * *

Experiment: Cellular viability qHTS for adrenocortical cancer (ACC) cell line SW-13 (AID 1963989); note: potency is the fitted concentration of half-maximal effect; nearly all actives have a fitted effect of over 65% in size
Conditions: SW-13 ACC cells viability, CellTiter-Glo, 48 h
Records with an inconclusive call do not appear. Calls of active or inactive are those of the source. Calls follow the shape of the dose curve; as a rule, active = well fitted cell-killing curve with a large enough effect; inconclusive = small, poorly fitted or top-dose-only effect; inactive = flat fitted curve, though single readings scatter.
# reported Potency; entries follow

Here are 3 molecules together with their reported answers.
molecule	Potency
Cc1cc(I)ccc1Nc1c(C(=O)NOCC2CC2)cc(F)c(F)c1F	3.16 µM (active)
CC1=C[C@@H]2[C@@H]([C@@H](O)C[C@@]3(C)[C@H]2C[C@@H](C)[C@]3(O)C(=O)CO)[C@@]2(C)Cc3cnn(-c4ccccc4)c3C=C12	22.4 µM (active)
COC(=O)C1=C(C)NC(C)=C(C(=O)OCCN2CCN(C(c3ccccc3)c3ccccc3)CC2)C1c1cccc([N+](=O)[O-])c1 (centres undefined)	4.47 µM (active)

Task item: Please give the measured Potency for this molecule: `COc1cc(N2CCC(N3CCN(C)CC3)CC2)ccc1Nc1ncc(Cl)c(Nc2ccccc2P(C)(C)=O)n1`
Reply: 1 µM (active)

Task item: Please give the measured Potency for this molecule: `Cn1ncc(NC(=O)c2nc(-c3c(F)cccc3F)sc2N)c1N1CC[C@@H](N)[C@H](F)CC1`
Reply: 25.1 µM (active)

Task item: Please give the measured Potency for this molecule: `NCC1CCN(c2nccc(-c3ccc4ccccc4c3)n2)CC1`
Reply: 22.4 µM (active)

* * *

Assay: Viability qHTS for spleen associated tyrosine kinase inhibitor (SYKi) drug resistant MV4-11 cells (AID 1963824); note: nearly all actives have a fitted effect of over 35% in size; note: potency is the fitted concentration of half-maximal effect
Details: SYKi-resistant MV4-11 viability, CellTiter-Glo, 72 h; series mostly up to 45 µM
Results filed as inconclusive are left out. Activity calls are given as the source filed them. Calls follow the shape of the dose curve; as a rule, active = well fitted cell-killing curve with a large enough effect; inconclusive = small, poorly fitted or top-dose-only effect, or effect the other way; inactive = no such curve, though single readings can be large or run the other way.
measurement.name: Potency

Here are 4 molecules together with their reported answers.
smiles.record	Potency
O=[N+]([O-])c1cncn1CCN1CCOCC1	inactive
O=C(OCC1=C[C@@H](O)[C@@H]2C=CO[C@@H](O[C@@H]3O[C@H](CO)[C@@H](O)[C@H](O)[C@H]3O)[C@H]12)c1ccc(O)cc1	inactive
O=c1ccn([C@@H]2O[C@H](CO)[C@@H](O)[C@H]2O)c(=O)[nH]1	inactive
OC[C@H]1O[C@@H](O[C@@H]2[C@@H](CO)O[C@](O)(CO)[C@H]2O)[C@H](O)[C@@H](O)[C@H]1O	inactive

Task item: Please give the measured Potency for this molecule: `CC(=O)O[C@@H]1CC(C)=C2[C@H]1[C@H](C)CC[C@H]2/C=C(\C)C(=O)O`
Reply: 16.4 µM (active)

Task item: Please give the measured Potency for this molecule: `CC(C)(C)c1ccc(-c2nc3ccccc3[nH]2)cc1`
Reply: 3.99 µM (active)

Task item: Please give the measured Potency for this molecule: `CC(C)(O)/C=C/C(=O)[C@](C)(O)[C@H]1[C@H](O)C[C@@]2(C)[C@@H]3CC=C4[C@@H](C[C@H](O[C@@H]5O[C@H](CO)[C@@H](O)[C@H](O)[C@H]5O)C(=O)C4(C)C)[C@]3(C)C(=O)C[C@]12C`
Reply: 6.11 µM (active)

Task item: Please give the measured Potency for this molecule: `CCOCCn1c(C2CCN(CCc3ccc(C(C)(C)C(=O)O)cc3)CC2)nc2ccccc21`
Reply: inactive

* * *

Assay: Viability qHTS for spleen associated tyrosine kinase inhibitor (SYKi) naive MV4-11 cells (AID 1963823); note: nearly all actives have a fitted effect of over 40% in size
Settings: MV4-11 AML viability, CellTiter-Glo luminescence, 72 h; series mostly up to 45 µM
Results filed as inconclusive are left out. Activity calls are given as the source filed them. The call rests on the fitted dose curve; in most records, active means well fitted cell-killing curve with a large enough effect; inconclusive means small, poorly fitted or top-dose-only effect, or effect the other way; inactive means no such curve, though single readings can be large or run the other way.
Use one of these outcomes when replying: active, inactive

compound	answer.label
Cc1nc(Nc2ccc(F)cc2)nc(N2CCc3ccccc3C2C)c1C (centres undefined)	active

Task item: Kindly provide the recorded test outcome for the following compound: C[C@@H]1CC[C@@]23CC[C@]4(C)[C@@](C=CC5[C@@]6(C)CC[C@H](O)C(C)(C)C6CC[C@]54C)(OC2=O)C3[C@H]1C (some centres undefined)
Reply: inactive

Task item: Kindly provide the recorded test outcome for the following compound: `Cc1ccc(NC(=O)c2cccc(C(C)(C)C#N)c2)cc1Nc1ccc2ncn(C)c(=O)c2c1`
Reply: active

Task item: Kindly provide the recorded test outcome for the following compound: `COc1cc2nc(N3CCN(C(=O)COc4c(OC)cccc4C(C)C)CC3)nc(N)c2cc1OC`
Reply: active

Task item: Kindly provide the recorded test outcome for the following compound: `O=c1cc(N2CCOCC2)oc2c(-c3cccc4c3sc3ccccc34)cccc12`
Reply: active

Task item: Kindly provide the recorded test outcome for the following compound: `CN(C)S(=O)(=O)c1ccc2c(c1)C(=Cc1cc3c([nH]1)CCCC3)C(=O)N2`
Reply: active

Task item: Kindly provide the recorded test outcome for the following compound: `Cc1nnc(C(=O)NC(C)(C)c2nc(C(=O)NCc3ccc(F)cc3)c(O)c(=O)n2C)o1`
Reply: inactive

Task item: Kindly provide the recorded test outcome for the following compound: CC(c1cc2ccccc2s1)N(O)C(N)=O (centres undefined)
Reply: inactive

Task item: Kindly provide the recorded test outcome for the following compound: CC(C)(O)C1CC=C(C(=O)OC[C@H]2O[C@@H](Oc3cc(C(=O)O)cc(O)c3O)[C@H](O)[C@@H](O)[C@@H]2O)CC1 (some centres undefined)
Reply: inactive
